# Assay: Cell permeability (Caco-2)
# Assay type: in vitro ADME
# Condition description: human, Caco-2
Reported endpoint: efflux ratio
Returns: the value as a bare number; no unit string appended.

Challenge: Item under review: Cc1cc(-c2noc(C(F)(F)F)n2)ccc1OCCCc1cc(C(=O)N(C)C)no1 [Compound 8] . Reported efflux ratio?
Response given: 3.5

----------
// values below are reported IC50
# Test target: PXR (Homo sapiens, UniProt O75469)
# Sequence (O75469 111-434 limits assumed): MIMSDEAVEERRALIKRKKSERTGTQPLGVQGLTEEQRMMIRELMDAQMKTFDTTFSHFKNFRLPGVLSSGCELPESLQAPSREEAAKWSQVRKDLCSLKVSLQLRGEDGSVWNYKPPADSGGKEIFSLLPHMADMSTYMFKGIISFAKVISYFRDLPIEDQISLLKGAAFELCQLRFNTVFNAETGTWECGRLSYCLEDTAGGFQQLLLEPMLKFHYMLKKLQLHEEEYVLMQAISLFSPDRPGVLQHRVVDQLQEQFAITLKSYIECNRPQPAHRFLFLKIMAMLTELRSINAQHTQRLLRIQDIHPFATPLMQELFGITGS

>>> recorded_value("Cc1cc(-c2noc(C(F)(F)F)n2)ccc1OCCCc1cc(C(=O)N(C)C)no1")
"> 100 µM"

Now consider the entry below.
Challenge: Give the measured IC50 of Cc1cc(CCCOc2c(C)cc(-c3noc(C(F)(F)F)n3)cc2C)on1 [Pleconaril, reference compound] .
Response given: > 100 µM

----------
# Assay: in vitro
# Condition description: human, HeLa cells
Reported endpoint: CC50 (µM)
Field: numeric (µM). Do not append units.

Challenge: Using the record for Cc1cc(CCCOc2c(C)cc(-c3noc(C(F)(F)F)n3)cc2C)on1 [Pleconaril, reference compound] , report its CC50.
Response given: 45.2

----------
# Assay: Pharmacokinetic study in mice
# Format: in vivo, white BALB/c male mice
# Condition description: male, BALB/c, mouse, plasma, oral, 100 mg/kg, 7 hours, 100 mg/kg intragastric
Reported endpoint: concentration at 7 h (ng/mL)
Numeric answer only, unit ng/mL assumed.

Challenge: What does the record list as concentration at 7 h for "Cc1cc(-c2noc(C(F)(F)F)n2)ccc1OCCCc1cc(C(=O)N(C)C)no1" ?
Response given: 49.6

----------
# Assay: Pharmacokinetic study in mice
# Assay type: in vivo, white BALB/c male mice
# Condition description: male, BALB/c, mouse, plasma, oral, 100 mg/kg, 3 hours, 100 mg/kg intragastric
Reported endpoint: concentration at 3 h

Challenge: Consider the compound shown here: "Cc1cc(-c2noc(C(F)(F)F)n2)ccc1OCCCc1cc(C(=O)N(C)C)no1" What is its recorded concentration at 3 h?
Response given: 285 ng/mL

----------
# Assay: Pharmacokinetic study in mice
# Format: in vivo, white BALB/c male mice
# Condition description: male, BALB/c, mouse, plasma, oral, 100 mg/kg, 5 hours, 100 mg/kg intragastric
Reported endpoint: concentration at 5 h
Please answer in the form of a number followed by its unit of measurement.

Challenge: Look up concentration at 5 h: "Cc1cc(-c2noc(C(F)(F)F)n2)ccc1OCCCc1cc(C(=O)N(C)C)no1"
Response given: 124 ng/mL

----------
# Assay: Protein binding, mouse
# Type: in vitro ADME
# Condition description: read-out: Protein binding, bound (converted)
# Procedure: In vitro ADME studies were performed on compound 8.
Reported endpoint: fraction unbound
Write the number on its own, no unit after it.

Challenge: Entry "Cc1cc(-c2noc(C(F)(F)F)n2)ccc1OCCCc1cc(C(=O)N(C)C)no1" : reported fraction unbound = ?
Response given: 0.002

----------
# Test system: HeLa cells
# Condition description: human
Reported endpoint: CC50

>>> recorded_value("Cc1cc(-c2noc(C(F)(F)F)n2)cc(C)c1OCCCc1cc(C(=O)N(C)C)no1")
"13.2 µM"
>>> recorded_value("CN(C)C(=O)c1cc(CCCOc2ccc(-c3noc(C(F)(F)F)n3)cc2F)on1")
"20.2 µM"
>>> recorded_value("COc1cc(-c2noc(C(F)(F)F)n2)cc([N+](=O)[O-])c1OCCCc1cc(C(=O)N(C)C)no1")
"25.6 µM"

Switching to the query record.
Challenge: Which CC50 is reported with HeLa cells for this entry: "Cc1cc(-c2noc(C(F)(F)F)n2)cc(C)c1OCCCc1cc(C(=O)NCc2ccccc2)no1" ?
Response given: > 100 µM

----------
# Assay: in vitro
Reported endpoint: CC50 (µM)
API: value field is a number in µM; no unit string.

Challenge: Dear colleague, I am looking for the recorded CC50 of the following compound: Cc1cc(-c2noc(C(F)(F)F)n2)ccc1OCCCc1cc(C(=O)N(C)C)no1 [Compound 8]
Response given: 52

----------
# Assay: Pharmacokinetic study in mice
# Format: in vivo, white BALB/c male mice
# Condition description: male, BALB/c, mouse, plasma, oral, 100 mg/kg, 2 hours, individual mice, 100 mg/kg intragastric; read-out: Concentration in mice plasma
Reported endpoint: concentration at 2 h (ng/mL)
Give just the number in ng/mL; leave the unit off.

Challenge: Can you share its concentration at 2 h? I mean this compound: "Cc1cc(-c2noc(C(F)(F)F)n2)ccc1OCCCc1cc(C(=O)N(C)C)no1"
Response given: 634

----------
# Tested on: Enterovirus 68 (strain US/KY/14-18953)
# Assay: microbe, parasite or virus in culture
# Assay type: cell-based
# Condition description: Enterovirus D
Reported endpoint: pEC50
FYI, pEC50 means -log10 of a concentration in mol per litre.

Challenge: Form field: reported pEC50 of "Cc1cc(-c2noc(C(F)(F)F)n2)ccc1OCCCc1cc(C(=O)N(C)C)no1"
Response given: 7.74

----------
# Assay: Microsomal stability, mouse liver microsomes
# Assay type: in vitro ADME
# Condition description: read-out: intrinsic clearance (CLint)
Reported endpoint: microsomal CLint (µL/min/mg)
Response body: numeric value in µL/min/mg, unit text excluded.

Challenge: What measured microsomal CLint goes with "Cc1cc(-c2noc(C(F)(F)F)n2)ccc1OCCCc1cc(C(=O)N(C)C)no1" ?
Response given: 70.6

----------
# Assay: Protein binding, human
# Format: in vitro ADME
# Condition description: read-out: Protein binding, bound (converted)
Reported endpoint: fraction unbound
Number only, no unit.

Challenge: Quick one: fraction unbound of Cc1cc(-c2noc(C(F)(F)F)n2)ccc1OCCCc1cc(C(=O)N(C)C)no1 [Compound 8] ?
Response given: 0.003

----------
# Assay: Pharmacokinetic study in mice
# Format: in vivo, white BALB/c male mice
# Condition description: male, BALB/c, mouse, po; mice, 100 mg/kg intragastric, plasma; read-out: AUC0-oo
Reported endpoint: AUC (ng·h/mL)
Use ng·h/mL as the unit, but write only the number.

Challenge: Which value of AUC has been reported for "Cc1cc(-c2noc(C(F)(F)F)n2)ccc1OCCCc1cc(C(=O)N(C)C)no1" in the records?
Response given: 3020

----------
# Assay: Pharmacokinetic study in mice
# Type: in vivo, white BALB/c male mice
# Condition description: male, BALB/c, mouse, plasma, oral, 100 mg/kg, 1 hour, individual mice, 100 mg/kg intragastric; read-out: Concentration in mice plasma
Reported endpoint: concentration at 1 h (ng/mL)
Answer in ng/mL, number only, no unit symbol.

Challenge: Recorded concentration at 1 h of "Cc1cc(-c2noc(C(F)(F)F)n2)ccc1OCCCc1cc(C(=O)N(C)C)no1" , please.
Response given: 1100

----------
# Assay: Pharmacokinetic study in mice
# Type: in vivo, white BALB/c male mice
# Condition description: male, BALB/c, mouse, plasma, oral, 100 mg/kg, 1 hour, 100 mg/kg intragastric; read-out: Concentration in mice plasma, Average
Reported endpoint: concentration at 1 h
# output: number + unit

Challenge: Any idea what concentration at 1 h was measured for Cc1cc(-c2noc(C(F)(F)F)n2)ccc1OCCCc1cc(C(=O)N(C)C)no1 [Compound 8] ?
Response given: 966 ng/mL

----------
# Assay: Microsomal stability, mouse liver microsomes
# Assay type: in vitro ADME
# Condition description: read-out: half-life (t1/2)
Reported endpoint: half-life (min)
Reply with just the number (in min).

Challenge: # lookup: half-life of "Cc1cc(-c2noc(C(F)(F)F)n2)ccc1OCCCc1cc(C(=O)N(C)C)no1"
Response given: 19.6
